Origin of the recorded values: PubChem BioAssay AID504497

TARGET: UniProtKB Q9BQF6
Sequence (Q9BQF6 706-1050 limits assumed): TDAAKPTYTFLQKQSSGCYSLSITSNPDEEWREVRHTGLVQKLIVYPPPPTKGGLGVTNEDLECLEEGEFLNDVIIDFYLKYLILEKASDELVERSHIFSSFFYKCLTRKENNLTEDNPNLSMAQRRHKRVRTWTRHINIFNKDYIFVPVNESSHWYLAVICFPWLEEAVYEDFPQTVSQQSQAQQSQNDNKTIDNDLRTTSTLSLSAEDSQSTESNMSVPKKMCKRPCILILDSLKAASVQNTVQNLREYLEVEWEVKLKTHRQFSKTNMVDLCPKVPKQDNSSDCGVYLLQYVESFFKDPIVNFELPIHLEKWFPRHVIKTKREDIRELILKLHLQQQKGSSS
TEST_PROTOCOL: inhibition of human SENP7 cleavage activity – biochemical, luminescence, SAR follow-up (AID 504497)
CONDITION_SUMMARY: recombinant SENP7, Z-RLRGG-aminoluciferin luminescence
MEASURED_ATTRIBUTE: pIC50
Convention used: pIC50 is expressed as -log10 of the molar concentration.

Item N#Cc1c(NC(=O)CSc2ncn[nH]2)sc2c1CCCCC2 : provide pIC50
5.25
